Where these numbers come from: paper PMC8765073

- ASSAYED TARGET: N501Y mutant RBD (SARS-CoV-2 Alpha (B.1.1.7), RBD N501Y, N501Y)
- EXPERIMENTAL PROTOCOL: BLI
QUANTITY KIND: pKd
One number for each entry, as −log10 of the molar value.

State its pKd: D27LE, scFv (scFv, V domains shown) VH: QVQLQQSGAEVKKPGSSVKVSCKASGGTFGNWSISWVRQAPGQGLEWMGGIDPSRGEATYAQKFQGRVTITTDESTSTAYMELSSLRSEDTAVYYCARETWYTSGGMDVWGQGTTVTVSS VL: SYELTQPPSVSVAPGKTARITCGGNNIGRKSVHWYQQKPGQAPVLVVYDDSDRPSGIPERFSGSNSGNTATLTISRVEAGDEADYYCQVYDLWSSDYVFGTGTKVEIK
6.56
